Could you please report measured Mean Residence Times ti for the items listed next?
Experimental Details: Partitioning tracer column experiment, Ottawa sand contaminated with TCE, air carrier (Example 3)
Conditions: 0.45 cc/min, Ottawa sand, TCE
Give your result as the value with the unit written after it.

FC(F)(F)C1(F)C(F)(F)C(F)(F)C(F)(F)C(F)(F)C1(F)F = 362.6 min
FC1(F)C(F)(F)C(F)(F)C1(F)F = 131.4 min
FC(F)(F)F [CF4, Carbon Tetrafluoride] = 95.1 min
FC1=C(F)C(F)(F)C(F)(F)C1(F)F = 235.0 min
FC(F)(F)C1(F)C(F)(F)C(F)(F)C(F)(F)C(F)(C(F)(F)F)C1(F)F (stereo not shown) = 1055.0 min
FS(F)(F)(F)(F)F [SF6, Sulfur Hexafluoride] = 103.7 min

Okay, now this molecule:
Problem: I have this molecule here, `[Ar]` , and I need its recorded Mean Residence Times ti.
Result: 93.2 min

====

Experimental Details: Partitioning tracer column experiment, Ottawa sand contaminated with TCE, air carrier (Example 3)
Conditions: 0.45 cc/min, Ottawa sand, TCE
Attribute Measured: Mean Residence Times ti (cc)
Numbers only, in cc.

Worked cases, Mean Residence Times ti (cc) given:
FC1=C(F)C(F)(F)C(F)(F)C1(F)F [C5 F8, Octafluorocyclopentene] = 105.8
FC(F)(F)C1(F)C(F)(F)C(F)(F)C(F)(F)C(F)(F)C1(F)F [C7 F14, perfluoromethylcyclohexane] = 163.2
FC(F)(F)C1(F)C(F)(F)C(F)(F)C(F)(F)C(F)(C(F)(F)F)C1(F)F (stereo not shown) [C8 F16, perfluoro-1,3-dimethylcyclohexane] = 474.8
FS(F)(F)(F)(F)F [SF6, Sulfur Hexafluoride] = 46.7
FC1(F)C(F)(F)C(F)(F)C1(F)F [C4 F8, Octafluorocyclobutane] = 59.1
[Ar] [Argon] = 41.9

Okay, now this molecule:
Problem: I have this molecule here, FC(F)(F)F [CF4, Carbon Tetrafluoride] , and I need its recorded Mean Residence Times ti (cc).
Result: 42.8

====

Experimental Details: Partitioning tracer column experiment, field soil contaminated with TCE
Type: physicochemical
Conditions: field soil contaminated with TCE
Attribute Measured: Activity Coefficient, γi, in field soil
Numbers only.

Give Activity Coefficient, γi, in field soil for all compounds that follow.
1. FC1=C(F)C(F)(F)C(F)(F)C1(F)F
2. FC(F)(F)C1(F)C(F)(F)C(F)(F)C(F)(F)C(F)(F)C1(F)F

Result:
1: 17.2; 2: 52.6

====

Experimental Details: Partitioning tracer column experiment, field soil contaminated with TCE
Assay type: physicochemical
Conditions: field soil contaminated with TCE
Could you please report measured Activity Coefficient, γi, in field soil for the items listed next?
Give bare numbers.

FS(F)(F)(F)(F)F [SF6, Sulfur Hexafluoride] = 17.2
FC1(F)C(F)(F)C(F)(F)C1(F)F = 20.8

Okay, now this compound:
Problem: I have this compound here, FC(F)(F)C1(F)C(F)(F)C(F)(F)C(F)(F)C(F)(C(F)(F)F)C1(F)F (stereo not drawn) , and I need its recorded Activity Coefficient, γi, in field soil.
Result: 89.7
